Molecular target: Nrg2 (UniProt P38082)
Sequence: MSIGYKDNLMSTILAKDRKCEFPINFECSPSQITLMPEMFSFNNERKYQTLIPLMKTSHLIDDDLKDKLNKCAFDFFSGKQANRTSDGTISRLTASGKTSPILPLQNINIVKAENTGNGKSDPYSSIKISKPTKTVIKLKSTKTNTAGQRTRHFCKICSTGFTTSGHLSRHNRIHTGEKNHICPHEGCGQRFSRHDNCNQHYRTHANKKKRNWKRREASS
Assay: PBM E-score (8-mer binding enrichment) (E-score (-0.5 to 0.5)); higher = stronger / more preferred TF binding
Conditions: protein concentration: 100 nM; construct: GST-full length
Over roughly 33,000 sequences, “E-score (-0.5 to 0.5)” has its median near -8e-05; the highest 2% begin near 0.23. The full list was thinned out, with the highest values kept by preference.
Lab note: compare PBM E-score against 0.04. Equal or greater, write 1. Smaller, write -1.

| Record sequence | Classification |
| --- | --- |
| TCAAATGA | -1 |
| CAGGGGCG | 1 |
| CAGGGGCC | 1 |
| ATCTCGCA | -1 |
| CGCGCAGA | 1 |
| ATGGCCTA | -1 |
| ATCTCGCG | 1 |
| GATAGCAA | 1 |
| AAAGCGCA | -1 |
| ATCTCGCC | -1 |
| AGTTAAGA | 1 |

====

Target: Nrg2 (UniProt P38082)
Sequence: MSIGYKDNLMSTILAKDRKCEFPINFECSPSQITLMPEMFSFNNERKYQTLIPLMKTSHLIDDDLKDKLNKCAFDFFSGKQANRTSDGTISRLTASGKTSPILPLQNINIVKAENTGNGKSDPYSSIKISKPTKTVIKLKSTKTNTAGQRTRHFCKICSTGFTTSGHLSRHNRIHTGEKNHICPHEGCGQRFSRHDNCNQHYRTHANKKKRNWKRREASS
Assay: PBM E-score (8-mer binding enrichment) (E-score (-0.5 to 0.5)); higher = stronger / more preferred TF binding
Settings: protein concentration: 100 nM; construct: GST-full length
Over roughly 33,000 sequences, “E-score (-0.5 to 0.5)” has its median near -8e-05; the highest 2% begin near 0.23. The sample as a whole holds a higher share of the highest values than the screen did.
Item-by-item account of PBM E-score
Reported metric: PBM E-score

| Record sequence | Value measured |
| --- | --- |
| AGAAACAA | 0.258 |
| AGCCAGGA | -0.0522 |
| AATCGATT | 0.247 |
| AGCTATAC | -0.101 |
| TAAGGACA | -0.0222 |
| TCCAGAAA | 0.0185 |
| GGCGCTAA | -0.0159 |
| AATCGAGG | 0.248 |
| CGCCGTGC | 0.0708 |
| AATCGAAC | 0.169 |
| GCAGCATA | 0.0385 |
| CGCTTATC | -0.0744 |
| AGCACAAC | 0.0937 |
| CATCAATC | -0.0356 |
| CGCGCTTA | 0.254 |
| AATCGAAG | 0.264 |
| CGCGCTAA | 0.259 |
| GATACACC | 0.0324 |
| GGAAACAA | 0.105 |
| CGCGCTGA | 0.0409 |
| AGCTATCC | -0.208 |
| GTAGAGTA | -0.0442 |

====

Item-by-item account of PBM E-score
Target: Nrg2 (UniProt P38082)
Sequence: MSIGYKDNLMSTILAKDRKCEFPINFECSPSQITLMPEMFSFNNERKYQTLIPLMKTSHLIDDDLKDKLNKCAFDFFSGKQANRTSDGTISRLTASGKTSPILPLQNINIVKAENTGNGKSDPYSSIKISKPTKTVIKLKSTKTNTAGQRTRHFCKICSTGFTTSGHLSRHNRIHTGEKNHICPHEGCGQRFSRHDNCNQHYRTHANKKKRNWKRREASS
Test: PBM E-score (8-mer binding enrichment) (E-score (-0.5 to 0.5)); higher = stronger / more preferred TF binding
Conditions: protein concentration: 100 nM; construct: GST-full length
The full ranking holds about 33,000 sequences; the median of “E-score (-0.5 to 0.5)” is about -8e-05, and the highest 2% start at about 0.23. The full list was thinned out, with the highest values kept by preference.
Reported metric: PBM E-score

| Record sequence | Value measured |
| --- | --- |
| GTTGTTAA | 0.241 |
| ATCGCATG | 0.188 |
| AAGGAAAC | -0.128 |
| GGTCCAGA | 0.125 |
| ACTAGTGG | 0.123 |
| CAGCGTTC | 0.0488 |
| ATCCTGAG | 0.0135 |
| CAAGCGGC | 0.0964 |
| ATACCGAC | -0.243 |
| CGTTTTTC | -0.117 |
| CCATGCAA | 0.247 |
| AGATACAG | 0.136 |
| CAGGCGCG | 0.231 |
| GGTTCAGA | 0.0397 |
| CTTACTAA | 0.0213 |
| GTCAAACA | -0.117 |
| GGAACTCA | -0.0697 |
| TGTTTGAA | -0.00474 |
| AAGACGGT | -0.161 |
| GTCCGCGA | -0.0693 |
| AGTAATAT | 0.137 |
| AAGGGAGC | -0.187 |
| AGCTCTGG | -0.136 |
| AGATACTG | 0.242 |
| AAACCTCC | -0.115 |
| ATCAGATG | -0.0502 |
| GTGCTGTA | -0.0149 |
| GCGTGAGA | 0.297 |
| GACCCTCC | 0.16 |
| GCTTGCTA | -0.0547 |
| TACCCTGA | 0.265 |
| TATCCTGA | 0.202 |
| CATGGTAC | 0.00349 |
| ATCGCGCA | -0.004 |
| AGCGCGCC | 0.0741 |
| ACAGAGAC | 0.00483 |
| CCATGCAG | 0.155 |
| GTCTAAAA | -0.0766 |
| CAGCACGA | 0.0405 |
| ACTAGCTA | 0.0559 |
| CAACTTAG | 0.221 |
| CAAATGCC | -0.0811 |
| CCAACCCA | -0.242 |
| ACCCCTAA | 0.172 |
| ACCCTGAG | 0.368 |
| CTCTGGTA | -0.0435 |
| AGTTCTAG | -0.0512 |
| CAACGGTG | -0.187 |
| GCCCTGAC | -0.00086 |
| AGCAGACC | 0.135 |
| AAGCGCAA | 0.147 |
| AACCTGAT | 0.0634 |
| ATTGTTAA | 0.0152 |
| GGCTGTTA | -0.00387 |
| CTGACTGA | -0.0542 |
| CAAATGCG | 0.268 |
| CAGATGGC | -0.107 |
| TACCCTCA | 0.00099 |
| TCATGCAA | 0.192 |
| ACCGCGCG | 0.301 |
| AACCCCTA | 0.25 |
| CCCCCCGC | -0.359 |
| CGCCCGCC | 0.085 |
| AGGTTCAG | 0.0524 |
| ACCCTGTG | 0.289 |
| ATTCGACC | -0.0786 |
| AATACAAG | 0.296 |
| TACCCCTA | 0.173 |
| ATCGAGCG | 0.229 |
| CTTGTTAA | 0.0818 |
| AGCCTGAT | -0.168 |
| ATCGCGCC | 0.201 |
| AATCGGCG | 0.0404 |
| AAAAGCGG | -0.12 |
| AACGCGCA | 0.0385 |
| GACTCGGA | -0.226 |
| CATGGTTC | 0.0101 |
| CGAGCGAG | 0.249 |
| AGCCTGTG | -0.118 |
| GATACAAA | 0.18 |
| ACCCTGAT | 0.249 |
| TGGGGACA | -0.187 |
| CAAAAGGA | -0.0703 |
| CAGCCAGC | -0.115 |
| AAGCGGAA | -0.0181 |
| ACCGCGCT | 0.0712 |
| CGCCCGCA | 0.229 |
| CGAATACA | 0.0068 |
| TATACAAA | 0.148 |
| CAAATGCA | -0.0764 |
| CGCATTCA | 0.0356 |

The measured values listed here are drawn from the supplement of paper PMC3334620.
